- system name: UniProt Q9NWZ3
- Sequence (Q9NWZ3 1-460): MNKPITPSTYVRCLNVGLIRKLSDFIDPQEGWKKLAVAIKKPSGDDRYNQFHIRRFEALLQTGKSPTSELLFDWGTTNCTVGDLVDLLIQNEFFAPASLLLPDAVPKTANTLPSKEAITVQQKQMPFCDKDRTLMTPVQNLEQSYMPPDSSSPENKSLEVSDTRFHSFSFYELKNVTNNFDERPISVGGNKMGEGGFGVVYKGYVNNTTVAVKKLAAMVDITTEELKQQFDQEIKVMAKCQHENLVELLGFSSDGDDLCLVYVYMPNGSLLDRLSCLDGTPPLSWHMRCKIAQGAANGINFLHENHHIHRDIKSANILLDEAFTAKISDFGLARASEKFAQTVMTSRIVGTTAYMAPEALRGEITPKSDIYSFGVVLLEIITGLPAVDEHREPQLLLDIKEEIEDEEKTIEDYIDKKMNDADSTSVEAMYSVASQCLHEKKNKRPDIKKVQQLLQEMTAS
- protocol description: OCI-LY-10 degradation assay (western blot, % IRAK4 degraded after 4 hours)
- Assay type: cell-based
- Set-up: endogenous in cells; host or cells: OCI-LY10
- assay conditions: OCI-LY10 cells, 4 hours, 0.01 uM compound
measure: OCI-LY10 % IRAK4 Degradation (0.01 uM)

[[record]]
compound = "O=C1CCC(N2C(=O)c3ccc(NCCOCCOCCNCc4ccc(-n5cc(NC(=O)c6coc(-c7ccnc(NCC8CC8)c7)n6)c(C(F)F)n5)cc4)cc3C2=O)C(=O)N1 (centres unmarked)"
measure = "OCI-LY10 % IRAK4 Degradation (0.01 uM)"
result = "C (<20% degradation)"

[[record]]
compound = "CC(C)(C)[C@H](NC(=O)COCCOCCOCCNc1cccc2c1C(=O)N(C1CCC(=O)NC1=O)C2=O)C(=O)N1C[C@H](O)C[C@H]1C(=O)NCc1ccc(-n2cc(NC(=O)c3coc(-c4ccnc(NCC5CC5)c4)n3)c(C(F)F)n2)cc1 (some centres unmarked)"
measure = "OCI-LY10 % IRAK4 Degradation (0.01 uM)"
result = "C (<20% degradation)"

[[record]]
compound = "O=C1CCC(N2C(=O)c3ccc(CCOCCN4CCC(n5cc(NC(=O)c6coc(-c7ccnc(NCC8CC8)c7)n6)c(C(F)F)n5)CC4)cc3C2=O)C(=O)N1 (centres unmarked)"
measure = "OCI-LY10 % IRAK4 Degradation (0.01 uM)"
result = "C (<20% degradation)"

[[record]]
compound = "CN(CCCc1cccc2c1C(=O)N(C1CCC(=O)NC1=O)C2=O)Cc1ccc(-n2cc(NC(=O)c3coc(-c4ccncc4)n3)c(C(N)=O)n2)cc1 (centres unmarked)"
measure = "OCI-LY10 % IRAK4 Degradation (0.01 uM)"
result = "C (<20% degradation)"


###

- system name: IRAK4 (Homo sapiens, UniProt Q9NWZ3)
- protocol description: OCI-LY-10 degradation assay (western blot, % IRAK4 degraded after 4 hours)
- Format: cell-based
- Set-up: endogenous in cells; host or cells: OCI-LY10
- assay conditions: OCI-LY10 cells, 4 hours, 0.01 uM compound
- Procedure: Compounds were reconstituted in DMSO to make stock solutions at concentration of 60 mM. THP-1 and OCI-LY10 cells were maintained in RPMI-1640 medium containing 10% FBS, 0.5 μM 2-ME or 20% FBS, 55 μM 2-ME, and 1% L-Glutamine respectively. […] The protein concentration of cell lysates was quantified with Pierce™ BCA Protein Assay Kit (Pierce, 23227). […] After incubation at 37° C. for 30 min, the absorbance of samples at 562 nm were measured with EnVision Plate Reader. […]
measure: OCI-LY10 % IRAK4 Degradation (0.01 uM)

[[record]]
compound = "NC(=O)c1nn(-c2ccc(C(=O)NCCOCCOCCNc3cccc4c3C(=O)N(C3CCC(=O)NC3=O)C4=O)cc2)cc1NC(=O)c1coc(-c2ccnc(C3CC3)c2)n1 (stereo not drawn)"
result = "B (>20-50% degradation)"

[[record]]
compound = "O=C1CCC(N2C(=O)c3cccc(NCCOCCOCCNC(=O)c4ccc(-n5cc(NC(=O)c6coc(-c7ccnc(NCC8CC8)c7)n6)c(C(F)(F)F)n5)cc4)c3C2=O)C(=O)N1 (stereo not drawn)"
result = "B (>20-50% degradation)"

[[record]]
compound = "O=C1CCC(N2C(=O)c3cccc(CCOCCN4CCC(n5cc(NC(=O)c6coc(-c7ccnc(NCC8CC8)c7)n6)c(C(F)F)n5)CC4)c3C2=O)C(=O)N1 (stereo not drawn)"
result = "C (<20% degradation)"

[[record]]
compound = "Cn1c(=O)n(C2CCC(=O)NC2=O)c2ccc(CCCOCCOCCNC(=O)c3ccc(-n4cc(NC(=O)c5coc(-c6ccnc(NCC(F)(F)F)c6)n5)c(C(N)=O)n4)cc3)cc21 (stereo not drawn)"
result = "B (>20-50% degradation)"

[[record]]
compound = "O=C1CCC(N2C(=O)c3cccc(NCCOCCOCCN4Cc5ccc(-n6cc(NC(=O)c7coc(-c8ccnc(NCC9CC9)c8)n7)c(C(F)(F)F)n6)cc5C4)c3C2=O)C(=O)N1 (stereo not drawn)"
result = "C (<20% degradation)"

